Test: Polyether solubility of acidic compound (20° C.)
Details: organic solvent or mixture
endpoint label: solubility

Looking for the measured solubility of O=C1CC(=O)NC(=O)N1 [barbituric acid] , can you help? ≤ 2000 µg/mL
